I'd appreciate it if you could supply Log2 fold-change of gene expression: Ptprb values for the items below.
# Test system: angiogenesis genes in dermal microvascular endothelial cells
# experiment-summary: Real time RT-PCR of angiogenesis gene expression during endothelial tube formation
# Format: cell-based
# run-conditions: 1 μM SM, 24 hours
# Experimental: For gene expression studies, three independent experiments were run for each SM tested. […] Fluorescence was measured in every cycle and a melting curve was run after the PCR by increasing temperature from 50 to 96° C. […] The genes that were monitored were selected based on their relevance to the angiogenesis process. […]

Form field Log2 fold-change of gene expression: Ptprb for item COc1ccc(CC2C(=O)NC(C)C(=O)N(C)C3Cc4ccc(cc4)Oc4cc(ccc4O)CC(C(=O)NC(C)C(=O)NC(C)C(=O)N2C)N(C)C3=O)cc1 (stereo not drawn) [compound 259969] on angiogenesis genes in dermal microvascular endothelial cells: −0.1

# return Log2 fold-change of gene expression: Ptprb for each item in the list
1. COC(=O)C1CC(=O)C(C(=O)OC)CC1=O (stereo not drawn) [Compound 122567]
2. COc1cc2cc(c1Cl)N(C)C(=O)CC(OC(=O)C(C)C)C1(C)OC1C(C)C1CC(O)(NC(=O)O1)C(OC)/C=C/C=C(\C)C2 (stereo not drawn) [compound 292222]
3. CC1CCN(CC[S-])CC1.O.O.[Cl][Pt+] [compound 292596]
4. O=C1C(=Cc2ccccc2)C(NC2CCCCC2)c2ccccc21 (stereo not drawn) [compound 150117]
5. CCC(=O)OCN1C(=O)C=CC1=O [compound 19630]

Response:
1. 0.5
2. 0.3
3. −1.9
4. −2.6
5. −1.6

====

I'd appreciate it if you could supply % Inhibition values for the items below.
# target-or-test-system: UniProtKB P11362
# experiment-summary: SelectScreen kinase activity profiling, FGFR1
# Assay type: biochemical
# Set-up: concentration or dose not given beside the values
# run-conditions: second of two independent trials
# Text: To characterize the RTK inhibitory activity of the antiangiogenic SMs described herein, 36 compounds were chosen and screened using Invitrogen's SelectScreen® kinase activity profiling service (described on-line at tools.invitrogen.com/content.cfm?pageid=10413#selection). VEGFR1 and FGFR2 RTK inhibitory activities were studied. […] Overall, a small minority of the SMs tested had any substantial kinase inhibitory activity. […]
Numbers only, in %.

Use these answered entries as a reference point.
Form field % Inhibition for item NC(=O)SCC(=O)Nc1ccc2ncccc2c1 on UniProtKB P11362: 4

Form field % Inhibition for item CC(C)(C)c1c2c(c(C(C)(C)C)c3c1OCN(Cc1ccccc1)C3)OCN(Cc1ccccc1)C2 on UniProtKB P11362: 8

Form field % Inhibition for item O=C(O)c1c(Br)c(Br)c(Br)c(Br)c1C1c2ccc(O)cc2Oc2cc(O)ccc21 on UniProtKB P11362: 95

Form field % Inhibition for item CC1(C)CC(Nc2ccc(Nc3ccccc3)cc2)CC(C)(C)N1 on UniProtKB P11362: 7

Form field % Inhibition for item Cc1ccc(S(=O)(=O)OCC(=O)O)cc1 on UniProtKB P11362: 3

Form field % Inhibition for item Nc1cc[c]([Hg])cc1.Nc1nc2c(ncn2C2OC(CO)C(O)C2O)c(=[SH+])[nH]1 (stereo not shown) on UniProtKB P11362: 5

Form field % Inhibition for item COc1ccc(CC2C(=O)NC(C)C(=O)N(C)C3C(=O)N(C)C(Cc4ccc(O)c(c4)Oc4ccc(cc4)C3O)C(=O)NC(C)C(=O)NC(C)C(=O)N2C)cc1 (stereo not shown) on UniProtKB P11362: 2

Form field % Inhibition for item CS(=O)(=O)c1ccc(/C=N/NC(N)=S)cc1 on UniProtKB P11362: −2

Form field % Inhibition for item CC(C)(C)c1cc(C#N)cc(Br)c1OP(=O)(Oc1c(Br)cc(C#N)cc1C(C)(C)C)c1ccccc1 on UniProtKB P11362: 4

Form field % Inhibition for item O=C(c1no[n+]([O-])c1C(=O)c1csc2ccccc12)c1csc2ccccc12 on UniProtKB P11362: 0

# return % Inhibition for each item in the list
1. CC1=C(Br)C(=O)C(C)=C(Br)C1=O.Cc1c(O)c(Br)c(C)c(O)c1Br
2. O=[As](O)(O)c1ccc(Cc2ccc([As](=O)(O)O)cc2)cc1
3. COc1ccc(CC2C(=O)NC(C)C(=O)N(C)C3Cc4ccc(cc4)Oc4cc(ccc4O)CC(C(=O)NC(C)C(=O)NC(C)C(=O)N2C)N(C)C3=O)cc1 (stereo not shown)

Response:
5
10
3

====

# target-or-test-system: FGFR1 (Homo sapiens, UniProt P11362)
# Sequence (P11362 398-822 limits assumed): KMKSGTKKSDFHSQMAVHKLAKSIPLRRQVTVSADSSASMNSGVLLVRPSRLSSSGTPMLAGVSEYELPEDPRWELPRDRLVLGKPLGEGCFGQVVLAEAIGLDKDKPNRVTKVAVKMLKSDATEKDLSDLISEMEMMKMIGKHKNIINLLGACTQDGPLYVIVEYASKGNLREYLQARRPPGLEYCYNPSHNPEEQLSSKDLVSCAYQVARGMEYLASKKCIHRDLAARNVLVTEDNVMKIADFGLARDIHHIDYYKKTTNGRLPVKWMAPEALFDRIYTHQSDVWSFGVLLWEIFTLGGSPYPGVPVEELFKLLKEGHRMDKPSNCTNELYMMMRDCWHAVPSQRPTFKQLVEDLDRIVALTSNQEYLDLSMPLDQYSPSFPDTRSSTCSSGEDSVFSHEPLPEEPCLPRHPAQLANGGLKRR
# experiment-summary: SelectScreen kinase activity profiling, FGFR1
# Format: biochemical
# Parameters: concentration or dose not given beside the values
# run-conditions: mean of two independent trials
assay-endpoint: Mean % Inhibition (%)
Answers are plain numbers, in %.

# return Mean % Inhibition for each item in the list
1. CC1(C)C2CCC1(C)C(OC(=O)CSC#N)C2 (centres unmarked)
2. CC1CCN(CC[S-])CC1.O.O.[Cl][Pt+]
3. C1=Cc2ccccc2C1.C=C(C)c1ccccc1.[N-]=[N+]=Nc1ccccc1
4. O=[As](O)(O)c1ccc(Cc2ccc([As](=O)(O)O)cc2)cc1
5. OC(c1cc(-c2ccccc2)nc2c1ccc1ccccc12)C1CCCCN1 (centres unmarked)

Response:
−2
4
1
9
8

# return Mean % Inhibition for each item in the list
1. CS(=O)(=O)c1ccc(/C=N/NC(N)=S)cc1
2. O=C(O)c1c(Br)c(Br)c(Br)c(Br)c1C1c2ccc(O)cc2Oc2cc(O)ccc21
3. NC(=O)SCC(=O)Nc1ccc2ncccc2c1
4. CC1(C)CC(Nc2ccc(Nc3ccccc3)cc2)CC(C)(C)N1

Response:
1. −3
2. 96
3. 1
4. 4

====

# System: angiogenesis genes in dermal microvascular endothelial cells
# experiment-summary: Real time RT-PCR of angiogenesis gene expression during endothelial tube formation
# Type: cell-based
# run-conditions: 1 μM SM, 24 hours
Log2 fold-change of gene expression: itbp4 of -2 or higher: T. Under -2: F.

Please review the following examples before continuing.
Prompt: hey, is Log2 fold-change of gene expression: itbp4 for this one >= -2? COc1ccc(CC2C(=O)NC(C)C(=O)N(C)C3Cc4ccc(cc4)Oc4cc(ccc4O)CC(C(=O)NC(C)C(=O)NC(C)C(=O)N2C)N(C)C3=O)cc1 (stereo not drawn)
Response: T

Prompt: hey, is Log2 fold-change of gene expression: itbp4 for this one >= -2? CCC(=O)OCN1C(=O)C=CC1=O
Response: T

Prompt: hey, is Log2 fold-change of gene expression: itbp4 for this one >= -2? COc1cc2cc(c1Cl)N(C)C(=O)CC(OC(=O)C(C)C)C1(C)OC1C(C)C1CC(O)(NC(=O)O1)C(OC)/C=C/C=C(\C)C2 (stereo not drawn)
Response: T

Prompt: hey, is Log2 fold-change of gene expression: itbp4 for this one >= -2? CC1CCN(CC[S-])CC1.O.O.[Cl][Pt+]
Response: T

Prompt: hey, is Log2 fold-change of gene expression: itbp4 for this one >= -2? COC(=O)C1CC(=O)C(C(=O)OC)CC1=O (stereo not drawn)
Response: T

# ---- query compound ----
Prompt: hey, is Log2 fold-change of gene expression: itbp4 for this one >= -2? O=C1C(=Cc2ccccc2)C(NC2CCCCC2)c2ccccc21 (stereo not drawn)
Response: F

====

I'd appreciate it if you could supply Log2 fold-change of gene expression: THBS2 values for the items below.
# Tested on: angiogenesis genes in dermal microvascular endothelial cells
# experiment-summary: Real time RT-PCR of angiogenesis gene expression during endothelial tube formation
# Type: cell-based
# run-conditions: 1 μM SM, 24 hours
One number for each entry.

Use these answered entries as a reference point.
# Log2 fold-change of gene expression: THBS2 (molecule: COc1cc2cc(c1Cl)N(C)C(=O)CC(OC(=O)C(C)C)C1(C)OC1C(C)C1CC(O)(NC(=O)O1)C(OC)/C=C/C=C(\C)C2 (stereo not drawn) [compound 292222] ) is 1.9

# Log2 fold-change of gene expression: THBS2 (molecule: CCC(=O)OCN1C(=O)C=CC1=O [compound 19630] ) is −0.6

# Log2 fold-change of gene expression: THBS2 (molecule: COC(=O)C1CC(=O)C(C(=O)OC)CC1=O (stereo not drawn) [Compound 122567] ) is 1.2

# return Log2 fold-change of gene expression: THBS2 for each item in the list
1. O=C1C(=Cc2ccccc2)C(NC2CCCCC2)c2ccccc21 (stereo not drawn) [compound 150117]
2. CC1CCN(CC[S-])CC1.O.O.[Cl][Pt+] [compound 292596]
3. COc1ccc(CC2C(=O)NC(C)C(=O)N(C)C3Cc4ccc(cc4)Oc4cc(ccc4O)CC(C(=O)NC(C)C(=O)NC(C)C(=O)N2C)N(C)C3=O)cc1 (stereo not drawn) [compound 259969]

Response:
0.9
1.1
2.6
